Values compiled from ChEMBL document CHEMBL1123573.

system: Escherichia coli; assay: In vitro testing for minimum inhibitory concentration against Escherichia coli ATCC 11303.; assay type: functional
Assign MIC to each entry below.
The reply should contain only the number, in µM.

The compound C[C@H](N)C(=O)N[C@@H](C)C(=O)NC[C@H](O)[C@H]1O[C@H](C(=O)O)C[C@@H](O)[C@H]1O on Escherichia coli: MIC was 4

The compound CC1(C)S[C@@H]2[C@H](NC(=O)[C@H](N)c3ccccc3)C(=O)N2[C@H]1C(=O)O on Escherichia coli: MIC was 1
